Measured Blood Half-Life (95% CI) of individual entries
# ASSAY_SUMMARY: In vitro metabolic half-life in pooled rat blood
# Assay type: in vitro ADME, Sprague-Dawley rats
# STATED_CONDITIONS: pooled rat blood, 37°C, 200 µM

Please review the entries below; each comes with its answer.
1) COC(=O)C[C@H](C)OC(=O)c1cncn1[C@H](C)c1ccccc1 [β-(S)-methyl- methoxycarbonyl etomidate] | 0.72 (0.56–0.98) min
2) COC(=O)CC(C)(C)OC(=O)c1cncn1C(C)c1ccccc1 (stereo not drawn) [β-dimethyl- methoxycarbonyl etomidate] | 23.4 (19.6–28.9) min
3) COC(=O)C(C)(C)OC(=O)c1cncn1[C@H](C)c1ccccc1 [Dimethyl- methoxycarbonyl metomidate] | 8.7 (7.4–10.7) min

Entry under test: COC(=O)[C@@H](C)COC(=O)c1cncn1[C@H](C)c1ccccc1 [α-(S)-methyl- methoxycarbonyl etomidate] . Its Blood Half-Life (95% CI) was 0.76 (0.58–1.0) min

Noted for `COC(=O)CCOC(=O)c1cncn1[C@H](c1ccccc1)C(C)C` : its Blood Half-Life (95% CI) reads 15.5 (11.6–23.1) min

Just so you know, measured Blood Half-Life (95% CI) for COC(=O)C(C)(C)COC(=O)c1cncn1[C@H](C)c1ccccc1 [α-dimethyl- methoxycarbonyl etomidate] came out at 2.6 (1.9–4.2) min

What the record says about `COC(=O)CCOC(=O)c1cncn1[C@@H](c1ccccc1)C(C)C` : Blood Half-Life (95% CI) is 0.15 (0.15–0.16) min

For COC(=O)[C@H](C)COC(=O)c1cncn1[C@H](C)c1ccccc1 [α-(R)-methyl- methoxycarbonyl etomidate] the compound record lists Blood Half-Life (95% CI) as 0.19 (0.17–0.22) min

Record summary for COC(=O)COC(=O)c1cncn1[C@H](C)c1ccccc1 [Methoxycarbonyl metomidate] : reported Blood Half-Life (95% CI) = <0.03 min

Record summary for COC(=O)[C@H](C)OC(=O)c1cncn1[C@H](C)c1ccccc1 [(S)-methyl- methoxycarbonyl metomidate] : reported Blood Half-Life (95% CI) = 0.14 (0.08–0.62) min

Please fill in: Blood Half-Life (95% CI) reported for COC(=O)[C@@H](C)OC(=O)c1cncn1[C@H](C)c1ccccc1 [(R)-methyl- methoxycarbonyl metomidate] = <0.03 min

Reported Blood Half-Life (95% CI) of COC(=O)CCOC(=O)c1cncn1[C@H](C)c1ccccc1 [Methoxycarbonyl etomidate] : 0.41 (0.31–0.60) min

The reported value for COC(=O)C[C@@H](C)OC(=O)c1cncn1[C@H](C)c1ccccc1 [β-(R)-methyl- methoxycarbonyl etomidate] in terms of Blood Half-Life (95% CI) is 0.91 (0.76–1.1) min

----------
# ASSAY_SUMMARY: Octanol:water partition coefficient
# Type: physicochemical
# STATED_CONDITIONS: water buffered with 10 mM Tris (pH 7.4)
Where Octanol/Water Partition Coefficient ± SD equals or exceeds 700, the correct label is Met; where it does not, the label is Not met.

# count of solved cases: 4
1. COC(=O)C(C)(C)COC(=O)c1cncn1[C@H](C)c1ccccc1 [α-dimethyl- methoxycarbonyl etomidate] | Met
2. COC(=O)C[C@@H](C)OC(=O)c1cncn1[C@H](C)c1ccccc1 [β-(R)-methyl- methoxycarbonyl etomidate] | Not met
3. COC(=O)[C@@H](C)OC(=O)c1cncn1[C@H](C)c1ccccc1 [(R)-methyl- methoxycarbonyl metomidate] | Not met
4. COC(=O)CCOC(=O)c1cncn1[C@@H](c1ccccc1)C(C)C | Met

(Q) Does the molecule COC(=O)[C@@H](C)COC(=O)c1cncn1[C@H](C)c1ccccc1 [α-(S)-methyl- methoxycarbonyl etomidate] have recorded Octanol/Water Partition Coefficient ± SD that is 700 or more?
(A) Not met

(Q) # check: Octanol/Water Partition Coefficient ± SD of COC(=O)CCOC(=O)c1cncn1[C@H](C)c1ccccc1 [Methoxycarbonyl etomidate] is greater than or equal to 700
(A) Not met

(Q) Reported Octanol/Water Partition Coefficient ± SD reaches at least 700 for COC(=O)[C@H](C)COC(=O)c1cncn1[C@H](C)c1ccccc1 [α-(R)-methyl- methoxycarbonyl etomidate] ?
(A) Not met

(Q) Is reported Octanol/Water Partition Coefficient ± SD greater than or equal to 700 here: COC(=O)COC(=O)c1cncn1[C@H](C)c1ccccc1 [Methoxycarbonyl metomidate]
(A) Not met

(Q) Evaluate COC(=O)CC(C)(C)OC(=O)c1cncn1C(C)c1ccccc1 (stereo not drawn) [β-dimethyl- methoxycarbonyl etomidate] : Octanol/Water Partition Coefficient ± SD at minimum 700?
(A) Met

(Q) Given the entry COC(=O)C(C)(C)OC(=O)c1cncn1[C@H](C)c1ccccc1 [Dimethyl- methoxycarbonyl metomidate] , answer whether its Octanol/Water Partition Coefficient ± SD meets or surpasses 700.
(A) Not met

(Q) Check the entry `COC(=O)CCOC(=O)c1cncn1[C@H](c1ccccc1)C(C)C` : does Octanol/Water Partition Coefficient ± SD equal or exceed 700?
(A) Met

(Q) Hi team, for COC(=O)[C@H](C)OC(=O)c1cncn1[C@H](C)c1ccccc1 [(S)-methyl- methoxycarbonyl metomidate] , is the recorded Octanol/Water Partition Coefficient ± SD at or above 700?
(A) Not met

(Q) Is Octanol/Water Partition Coefficient ± SD at least 700? Consider COC(=O)C[C@H](C)OC(=O)c1cncn1[C@H](C)c1ccccc1 [β-(S)-methyl- methoxycarbonyl etomidate]
(A) Not met
